B1: SLC35F2 (parent)
chain: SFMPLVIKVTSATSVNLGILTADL

variants of: B1; assay: protein stability index of a GFP-peptide fusion (GPS, HEK-293T) (PSI 1-6); higher = more stable; settings: c terminus: a fixed tail appended;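 also: lentivirally expressed fusions sorted by FACS into six bins by GFP to DsRed ratio, PSI derived from sequencing read proportions per bin multiplied by bin number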
Short version: protein stability index at least 3 is class 1, less is class 0.

Here are 3 variants together with their reported answers.
>>> classlabel("F2E")
"class 0"
>>> classlabel("F2C")
"class 0"
>>> classlabel("I7M")
"class 0"

Q) hey, is protein stability index for this one >= 3? L24F
A) class 1

Q) hey, is protein stability index for this one >= 3? M3P
A) class 1

Q) hey, is protein stability index for this one >= 3? S11E
A) class 0

Q) hey, is protein stability index for this one >= 3? V15R
A) class 1

Q) hey, is protein stability index for this one >= 3? V15I
A) class 0

Q) hey, is protein stability index for this one >= 3? V6C
A) class 1

Q) hey, is protein stability index for this one >= 3? T10H
A) class 1

Q) hey, is protein stability index for this one >= 3? S1W
A) class 1

Q) hey, is protein stability index for this one >= 3? T21M
A) class 0

Q) hey, is protein stability index for this one >= 3? N16V
A) class 1

Q) hey, is protein stability index for this one >= 3? A22K
A) class 0

Q) hey, is protein stability index for this one >= 3? V9Y
A) class 1

Q) hey, is protein stability index for this one >= 3? A22G
A) class 1
